# credit: patent US20090226442A1

molecular target: human RON (recepteur d'origine nantais, MST1R), full length, expressed on cells (UniProt Q04912 25-1400); experiment: FACS
Sequence (Q04912 25-1400): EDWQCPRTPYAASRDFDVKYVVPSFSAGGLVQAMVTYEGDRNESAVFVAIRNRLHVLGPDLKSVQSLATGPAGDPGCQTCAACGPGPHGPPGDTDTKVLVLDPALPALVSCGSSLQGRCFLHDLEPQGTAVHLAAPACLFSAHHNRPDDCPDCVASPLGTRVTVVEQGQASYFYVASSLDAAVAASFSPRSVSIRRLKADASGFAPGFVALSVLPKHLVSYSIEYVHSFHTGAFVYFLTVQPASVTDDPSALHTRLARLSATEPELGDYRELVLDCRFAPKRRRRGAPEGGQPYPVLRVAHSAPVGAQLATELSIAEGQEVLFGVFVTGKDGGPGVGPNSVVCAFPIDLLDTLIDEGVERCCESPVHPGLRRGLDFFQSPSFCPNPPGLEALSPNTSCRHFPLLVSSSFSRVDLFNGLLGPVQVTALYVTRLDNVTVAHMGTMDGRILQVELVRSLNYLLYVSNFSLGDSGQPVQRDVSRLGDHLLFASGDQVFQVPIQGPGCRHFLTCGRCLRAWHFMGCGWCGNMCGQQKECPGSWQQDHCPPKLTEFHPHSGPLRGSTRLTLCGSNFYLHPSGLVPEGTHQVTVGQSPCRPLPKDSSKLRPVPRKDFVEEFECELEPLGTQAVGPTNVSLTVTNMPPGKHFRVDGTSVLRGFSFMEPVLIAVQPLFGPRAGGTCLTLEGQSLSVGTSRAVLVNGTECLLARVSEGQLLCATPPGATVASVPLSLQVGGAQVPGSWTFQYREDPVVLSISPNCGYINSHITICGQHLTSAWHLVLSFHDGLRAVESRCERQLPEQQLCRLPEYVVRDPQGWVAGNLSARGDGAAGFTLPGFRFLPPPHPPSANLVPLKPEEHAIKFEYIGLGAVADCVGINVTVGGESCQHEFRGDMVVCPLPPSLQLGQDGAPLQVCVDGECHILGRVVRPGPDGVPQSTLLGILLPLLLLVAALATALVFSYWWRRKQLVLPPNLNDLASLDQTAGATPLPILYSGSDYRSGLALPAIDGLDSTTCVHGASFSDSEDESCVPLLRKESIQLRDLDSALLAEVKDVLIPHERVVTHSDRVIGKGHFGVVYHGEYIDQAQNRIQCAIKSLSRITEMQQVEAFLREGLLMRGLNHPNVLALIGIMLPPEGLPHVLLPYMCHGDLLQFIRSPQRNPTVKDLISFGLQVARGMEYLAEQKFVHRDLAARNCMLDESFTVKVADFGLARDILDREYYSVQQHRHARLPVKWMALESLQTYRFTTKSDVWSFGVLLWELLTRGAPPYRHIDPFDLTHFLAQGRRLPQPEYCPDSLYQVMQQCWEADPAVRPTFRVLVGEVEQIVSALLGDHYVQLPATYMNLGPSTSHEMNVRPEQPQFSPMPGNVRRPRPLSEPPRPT
readoutLabel: EC50 (µg/mL)
Kindly answer with a numeric value in µg/mL, unit omitted.

Input line: Using the record for 1P4A12 murine monoclonal anti-RON antibody (antibody, V domains shown) VH: EVQLQQSGPELVKPGASMKISCKASGYSFTGYTMNWVKQSHGKKLEWIGLINPYNGGTIYNQKFKGKATLTVDKSSSTAYMELLSLTSEDSAVYYCARWLRRGGYAMDYWGQGASVTVSS VL: DILLTQSPAILSVSPGERVSFSCRASQSIGTSIHWYQQRTNGSPRLLIKFASESISGIPSRFSGSGSGTDFTLSINSVESEDIADYYCQQSDSWPLTFGAGTKLEVK , report its EC50.
Output line: 0.01
